molecular target: urease (Canavalia ensiformis, UniProt P07374); test: biochemical; format: biochemical; details: read-out: Percentage inhibition at 50 µg/mL
Sequence (P07374 whole entry, looked up): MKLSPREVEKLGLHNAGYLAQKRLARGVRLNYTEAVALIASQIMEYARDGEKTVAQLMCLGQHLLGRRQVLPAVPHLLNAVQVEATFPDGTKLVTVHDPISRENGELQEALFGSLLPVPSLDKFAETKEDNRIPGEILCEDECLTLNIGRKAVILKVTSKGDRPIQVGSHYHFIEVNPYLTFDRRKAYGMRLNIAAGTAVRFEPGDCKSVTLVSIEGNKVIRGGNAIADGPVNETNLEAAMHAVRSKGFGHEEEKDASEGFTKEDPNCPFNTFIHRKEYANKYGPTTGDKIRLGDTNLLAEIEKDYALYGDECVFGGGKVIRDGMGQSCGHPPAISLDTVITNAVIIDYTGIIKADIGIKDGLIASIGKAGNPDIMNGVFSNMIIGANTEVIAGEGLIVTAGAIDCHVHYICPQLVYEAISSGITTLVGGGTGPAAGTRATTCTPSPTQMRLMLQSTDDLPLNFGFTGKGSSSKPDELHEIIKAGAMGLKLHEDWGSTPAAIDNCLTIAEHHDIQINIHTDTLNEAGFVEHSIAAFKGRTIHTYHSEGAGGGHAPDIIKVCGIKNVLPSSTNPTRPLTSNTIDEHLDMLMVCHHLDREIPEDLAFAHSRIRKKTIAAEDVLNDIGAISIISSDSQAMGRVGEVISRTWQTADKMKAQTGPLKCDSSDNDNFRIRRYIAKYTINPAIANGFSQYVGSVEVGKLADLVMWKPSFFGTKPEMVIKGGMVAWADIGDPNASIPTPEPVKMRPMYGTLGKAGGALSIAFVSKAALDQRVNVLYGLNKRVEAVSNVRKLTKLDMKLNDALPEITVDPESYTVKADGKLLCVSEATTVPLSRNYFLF
TEST_READOUT: inhibition at 50 µg/mL (%)
Answer with a number only, understood to be in %.

Example molecules with recorded inhibition at 50 µg/mL:
• Nc1nc2ccc(-c3ccc(Cl)cc3)cc2s1 = 88.2
• Nc1nc2ccc(-c3ccccc3)cc2s1 [Compound 3e, 6-Phenylbenzo[d]thiazole-2-amine] = 85
• Nc1nc2ccc(-c3cc(C(F)(F)F)cc(C(F)(F)F)c3)cc2s1 = 88.6

Please state recorded inhibition at 50 µg/mL (tested on urease (Canavalia ensiformis, UniProt P07374)) of Cc1ccc(-c2ccc3nc(N)sc3c2)cc1 [Compound 3a, 6-p-Tolylbenzo[d]thiazole-2-amine]
90.5

====

This listing pairs compounds with measured melting point.

Example compounds with recorded melting point:
- Nc1nc2ccc(-c3ccc(Cl)cc3)cc2s1: 194 to 196 °C
- Cc1ccc(-c2ccc3nc(N)sc3c2)cc1 [Compound 3a, 6-p-Tolylbenzo[d]thiazole-2-amine]: 184 to 186 °C
- Nc1nc2ccc(-c3cc(C(F)(F)F)cc(C(F)(F)F)c3)cc2s1: 180 to 182 °C

Recorded melting point of `COc1ccc(-c2ccc3nc(N)sc3c2)cc1` , please.
165 to 167 °C

====

Target: urease (Canavalia ensiformis)
Experiment: biochemical
Format: biochemical
Details: read-out: Percentage inhibition at 50 µg/mL
Description: The newly synthesized compounds 3a–e were examined for their urease inhibition activities in vitro at 25 and 50 μg/mL concentrations. […] Thus, enzyme stops catalyzing hydrolysis and the activity of the enzyme is inhibited. The urease inhibitory activity of the synthesized compounds 2, 3a–e, 4 was determined as follows: phosphate buffer (pH 7, 200 µL) containing 1 unit of enzyme was mixed with phosphate buffer (230 µL) and of a particular stock solution (20 µL, thiourea or the test compound). […]
TEST_READOUT: inhibition at 50 µg/mL (%)
Answer with a number only, understood to be in %.

Example compounds with recorded inhibition at 50 µg/mL:
• COc1ccc(-c2ccc3nc(N)sc3c2)cc1 = 86.2
• CC(=O)Nc1nc2ccc(Br)cc2s1 [Compound 4, N-(6-Bromobenzo[d]thiazol-2-yl)acetamide] = 89

Recorded inhibition at 50 µg/mL of Nc1nc2ccc(Br)cc2s1 [Compound 2, 6-Bromobenzo[d]thiazole-2-amine] , please.
95

====

molecular target: urease (Canavalia ensiformis); assay: biochemical; assay type: biochemical
TEST_READOUT: IC50 (µM)
Answer with a number only, understood to be in µM.

Example compounds with recorded IC50:
* Nc1nc2ccc(-c3cc(C(F)(F)F)cc(C(F)(F)F)c3)cc2s1 | 79.7
* COc1ccc(-c2ccc3nc(N)sc3c2)cc1 | 111
* CC(=O)Nc1nc2ccc(Br)cc2s1 [Compound 4, N-(6-Bromobenzo[d]thiazol-2-yl)acetamide] | 112
* Nc1nc2ccc(-c3ccc(Cl)cc3)cc2s1 | 117
* Nc1nc2ccc(Br)cc2s1 [Compound 2, 6-Bromobenzo[d]thiazole-2-amine] | 124

Recorded IC50 of Cc1ccc(-c2ccc3nc(N)sc3c2)cc1 [Compound 3a, 6-p-Tolylbenzo[d]thiazole-2-amine] , please.
113

Recorded IC50 of Nc1nc2ccc(-c3ccccc3)cc2s1 [Compound 3e, 6-Phenylbenzo[d]thiazole-2-amine] , please.
116

Hey, just so you know, these numbers are from paper PMC6269778.
